Hello, the source for this data is patent US8293774B2, in case you need it.

# System: SORBI (Andropogon sorghum, common sorgum)
# assay text: Weed control test, foliage treatment (Test Example 1, Table 7)
# Assay type: in vivo
# experimental conditions: Sorghum bicolor, foliar, 0.025 kg/ha, read-out: Plant damage (herbicidal activity), visually evaluated, SORBI
Record form. Attribute: pest or weed control at 25 g/ha. Fill in for each entry.
One number for each entry, in %.

Worked examples follow.
>  <smiles string>
C[C@@H](Oc1ccc(C(F)=C(c2ccccc2)C(F)(F)F)cc1)C(=O)Nc1nc2cc(Cl)ccc2o1

>  <readout unit>
%

>  <pest or weed control at 25 g/ha>
10

$$$$
>  <smiles string>
C[C@@H](Oc1ccc(OC(F)=Cc2ccc(Cl)cc2)cc1)C(=O)Nc1nc2cc(Cl)ccc2o1

>  <readout unit>
%

>  <pest or weed control at 25 g/ha>
0

$$$$
>  <smiles string>
Cc1ccc(C=C(F)Oc2ccc(O[C@H](C)C(=O)Nc3ccccc3F)cc2)cc1

>  <readout unit>
%

>  <pest or weed control at 25 g/ha>
0

$$$$

Shift focus to the following entry.
For `C[C@@H](Oc1ccc(Oc2ccc(C#N)cc2F)cc1)C(=O)Nc1nc2ccccc2s1` , what is its reported pest or weed control at 25 g/ha?
20
